Experimental Target: UniProt:O60674
Sequence (O60674 849-1124): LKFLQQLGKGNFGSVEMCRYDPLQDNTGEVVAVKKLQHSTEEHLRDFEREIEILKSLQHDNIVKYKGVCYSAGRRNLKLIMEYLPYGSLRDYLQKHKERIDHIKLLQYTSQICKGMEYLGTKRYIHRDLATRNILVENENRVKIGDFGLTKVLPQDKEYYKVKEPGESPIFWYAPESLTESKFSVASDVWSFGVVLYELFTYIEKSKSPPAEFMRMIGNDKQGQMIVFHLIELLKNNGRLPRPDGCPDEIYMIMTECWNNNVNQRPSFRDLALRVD
Method: Jak biochemical HTRF assay, JAK2
Test Parameters: recombinant purified GST-tagged catalytic domain; HTRF format; [ATP] 8.5 μM
Endpoint Label: IC50 (nM)

Compound	Unit Name	Val
N#C[C@@H]1CCN(CC2CCOC2)C[C@H]1n1cc(C(N)=O)c(Nc2ccc(F)cc2)n1 (mixture of isomers) [Example 6-21]	nM	63
CC1(COC(=O)N2CC[C@@H](C#N)C(n3cc(C(N)=O)c(Nc4ccc(F)cc4)n3)C2)CC1 (mixture of isomers) [Example 5-72]	nM	69
N#C[C@H]1CCNCC1n1cc(C(N)=O)c(Nc2ccc(F)cc2)n1 (mixture of isomers) [Example 3-1]	nM	125
C#CCCOC(=O)N1CC[C@@H](n2cc(C(N)=O)c(Nc3ccc(F)cc3)n2)[C@H](C#N)C1 (racemic) [Example 5-34]	nM	154
CC(C)(C)COC(=O)N1CC[C@@H](C#N)C(n2cc(C(N)=O)c(Nc3ccc(F)cc3)n2)C1 (mixture of isomers) [Example 5-80]	nM	145

FYI, the data here is from patent US9394282B2.
